- Assay System: Ha006a (Helicoverpa armigera, UniProt D5G3E0)
- Sequence (D5G3E0 25-548): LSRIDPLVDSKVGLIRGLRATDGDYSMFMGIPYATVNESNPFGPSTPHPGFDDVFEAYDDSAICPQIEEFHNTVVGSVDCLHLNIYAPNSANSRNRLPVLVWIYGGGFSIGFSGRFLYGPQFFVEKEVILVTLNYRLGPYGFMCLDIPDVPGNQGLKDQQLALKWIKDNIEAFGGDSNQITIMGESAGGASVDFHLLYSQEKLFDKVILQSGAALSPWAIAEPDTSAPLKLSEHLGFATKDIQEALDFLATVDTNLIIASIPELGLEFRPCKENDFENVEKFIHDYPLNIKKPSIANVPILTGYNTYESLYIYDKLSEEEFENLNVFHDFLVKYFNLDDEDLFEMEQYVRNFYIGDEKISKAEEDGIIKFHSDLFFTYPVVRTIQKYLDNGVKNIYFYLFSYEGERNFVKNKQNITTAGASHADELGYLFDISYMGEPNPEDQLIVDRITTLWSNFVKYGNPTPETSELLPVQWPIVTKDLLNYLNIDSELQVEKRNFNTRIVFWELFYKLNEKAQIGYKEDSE
- Run Description: Differential scanning calorimetry of Ha006a-ligand complexes
- Assay type: binding
- Cond: DSC, first transition (Tm1)
# key: entry, value: ΔH (molar heat enthalpy)
Observable: ΔH (molar heat enthalpy) (kcal/mol)

> print(dat)
                                   compound                observable  measurement.units  quantitative.result
1  COc1cc(OC)c2c(=O)cc(-c3ccc(OC)c(OC)c3)oc2c1  ΔH (molar heat enthalpy)           kcal/mol               584000
2  O=P(Oc1ccccc1)(Oc1ccccc1)Oc1ccccc1 [Triphenyl phosphate, reference compound]  ΔH (molar heat enthalpy)           kcal/mol               457000
3  CN1CCc2cc3c(cc2C(=O)Cc2ccc4c(c2C1)OCO4)OCO3  ΔH (molar heat enthalpy)           kcal/mol               630000
4     O=C(/C=C/C=C/c1ccc2c(c1)OCO2)N1CCCCC1  ΔH (molar heat enthalpy)           kcal/mol               218000
